Target: WNV MTase (West Nile virus, UniProt Q9Q6P4)
Sequence (Q9Q6P4 2529-2794): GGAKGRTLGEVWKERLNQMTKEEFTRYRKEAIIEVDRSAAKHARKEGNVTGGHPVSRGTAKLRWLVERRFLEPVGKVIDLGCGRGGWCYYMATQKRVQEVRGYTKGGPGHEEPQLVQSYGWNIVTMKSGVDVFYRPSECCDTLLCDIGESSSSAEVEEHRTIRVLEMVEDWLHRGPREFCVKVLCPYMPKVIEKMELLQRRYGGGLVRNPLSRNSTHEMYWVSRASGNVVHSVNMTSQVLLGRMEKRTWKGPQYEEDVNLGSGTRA
Experiment: N7 methylation inhibition assay, WNV MTase
Conditions: IC50 N7, no CHAPS, WNV MTase, no CHAPS
property-measured: pIC50
pIC50 is defined as minus the log10 of a concentration measured in mol/L.

Recorded results for 2 molecules are shown here.
molecule: Nc1ccc(-c2ccc(Nc3cc(S(=O)(=O)O)c(N)c4c3C(=O)c3ccccc3C4=O)cc2)c(S(=O)(=O)O)c1 [NSC 125910]
target-or-test-system: WNV MTase (West Nile virus, UniProt Q9Q6P4)
value: 5.12

molecule: S=C(Nc1ccc2c(c1)Cc1ccccc1-2)Nc1ccc2c(c1)Cc1ccccc1-2 [NSC 23217]
target-or-test-system: WNV MTase (West Nile virus, UniProt Q9Q6P4)
value: 4.80

Sample Cc1cc(N)c2cc(NC(=O)Nc3ccc4nc(C)cc(N)c4c3)ccc2n1 [NSC 12155, aminoquinuride] ; pIC50 observed: 5.85

----------
Molecular target: WNV MTase (West Nile virus)
Experiment: N7 methylation inhibition assay, WNV MTase
Details: read-out: IC50 N7, no CHAPS; WNV MTase, no CHAPS
property-measured: IC50 (µM)
Kindly answer with a numeric value in µM, unit omitted.

Recorded results for 2 molecules are shown here.
molecule: Nc1nc(-c2cccc([N+](=O)[O-])c2)cc(-c2cc(-c3cccc([N+](=O)[O-])c3)nc(N)n2)n1 [NSC 371880]
value: 63
--
molecule: CC1OC(CC(=O)O)Cc2c1c(O)c1c(O)cc(-c3cc(=O)c4c(=O)c5c(c(=O)c=4c3=O)CC(CC(=O)O)OC5C)c(O)c1c2O (stereo not drawn) [NSC 293161]
value: 13.2

Now, please, on to the next molecule.
Sample O=C1C2=C(Nc3cc([N+](=O)[O-])ccc3N2)OC1c1ccc(C2OC3=C(Nc4ccc([N+](=O)[O-])cc4N3)C2=O)cc1 (stereo not drawn) [NSC 372295] ; IC50 observed: 62

----------
Listed here: items and their measured pIC50.
Target: WNV MTase (West Nile virus)
Assay: N7 methylation inhibition assay, WNV MTase
Conditions: IC50 N7, with CHAPS, WNV MTase, with CHAPS
pIC50 is defined as minus the log10 of a concentration measured in mol/L.

compound: Nc1ccc(-c2ccc(Nc3cc(S(=O)(=O)O)c(N)c4c3C(=O)c3ccccc3C4=O)cc2)c(S(=O)(=O)O)c1 [NSC 125910]
pIC50: 4.75

Now, please, on to the next compound.
Sample Cc1cc(N)c2cc(NC(=O)Nc3ccc4nc(C)cc(N)c4c3)ccc2n1 [NSC 12155, aminoquinuride] ; pIC50 observed: 6.06

----------
Test system: DENV-2
Assay: microbe, parasite or virus in culture
Format: cell-based, Dengue virus (DENV-2)
Conditions: Dengue virus, DENV2, A549, 42 h
property-measured: EC50
Quick note: unit goes after the number.

Sample Cc1cc(N)c2cc(NC(=O)Nc3ccc4nc(C)cc(N)c4c3)ccc2n1 [NSC 12155, aminoquinuride] ; EC50 observed: 7 µM

----------
System: BHK-21 cells
Assay: MTT cell proliferation cytotoxicity assay, BHK-21
Type: cell-based
Details: BHK-21 cells, MTT, 42 h
Listed here: items and their measured CC50.

compound: Nc1nc(-c2cccc([N+](=O)[O-])c2)cc(-c2cc(-c3cccc([N+](=O)[O-])c3)nc(N)n2)n1
value: 212 µM
//
compound: O=C1C2=C(Nc3cc([N+](=O)[O-])ccc3N2)OC1c1ccc(C2OC3=C(Nc4ccc([N+](=O)[O-])cc4N3)C2=O)cc1 (stereo not drawn)
value: 126 µM

Reported BHK-21 cells CC50 for item CC1OC(CC(=O)O)Cc2c1c(O)c1c(O)cc(-c3cc(=O)c4c(=O)c5c(c(=O)c=4c3=O)CC(CC(=O)O)OC5C)c(O)c1c2O (stereo not drawn) was 25 µM
